- Target system: IDO (Homo sapiens)
- Experimental details: SKOV3 kynurenine cell-based assay (IDO induced by IFN-γ)
- Set-up: IDO expression was induced in the SKOV3 cells by the addition of 500 ng/ml IFN-γ; endogenous in cells; host or cells: SKOV3 (human ovarian adenocarcinoma), induced with IFN-γ
- Condition info: SKOV3 human ovarian adenocarcinoma cells, 500 ng/ml IFN-γ, 48 hours, 500 μM L-tryptophan; read-out: SKOV3 Kynurenine cell based assay pIC50 (converted)
Parameter: IC50. Scope: all listed entries.

Would you please look over these solved cases?
# Molecule, IC50
measured = [
    ("CS(=O)(=O)Nc1ccc(C2CCN(c3cc(Cl)cc4[nH]ncc34)CC2)cc1", "< 3.16 µM"),
    ("O=S(=O)(C1CC1)N1CCN(c2cc(Cl)cc3[nH]ncc23)CC1", "3.24 to 31.6 µM"),
    ("NS(=O)(=O)N1CCN(c2cccc3[nH]ncc23)CC1", "3.24 to 31.6 µM"),
    ("CS(=O)(=O)N1CCC(c2ccc(Cl)c3[nH]ncc23)CC1", "3.24 to 31.6 µM"),
    ("OCCc1cc(Cl)cc2[nH]ncc12", "> 100 µM"),
    ("OC(c1cc(Cl)cc2[nH]ncc12)C1CCCCC1 (stereo not drawn)", "32.4 to 100 µM"),
    ("CS(=O)(=O)N1C2COCC1CN(c1cc(Cl)cc3[nH]ncc13)C2", "32.4 to 100 µM"),
    ("CC(C)S(=O)(=O)N1CCN(c2cccc3[nH]ncc23)CC1", "32.4 to 100 µM"),
]

Now consider a different molecule.
-- ask Look up IC50 for this molecule: CS(=O)(=O)N1CCC(c2cc(C3CC3)cc3[nH]ncc23)CC1
-- reply 3.24 to 31.6 µM

----------
- Target system: IDO (Homo sapiens)
- Experimental details: SKOV3 kynurenine cell-based assay (IDO induced by IFN-γ)
- Set-up: IDO expression was induced in the SKOV3 cells by the addition of 500 ng/ml IFN-γ; endogenous in cells; host or cells: SKOV3 (human ovarian adenocarcinoma), induced with IFN-γ
- Condition info: SKOV3 human ovarian adenocarcinoma cells, 500 ng/ml IFN-γ, 48 hours, 500 μM L-tryptophan; read-out: SKOV3 Kynurenine cell based assay pIC50 (converted)
Listed below: IC50 values for each entry.

Solved cases (6 shown):
# Compound, Value kind, Measured value
measured = [
    ("O=C1NCNC12CCN(c1cc(Cl)cc3[nH]ncc13)CC2 [Compound 397]", "IC50", "> 100 µM"),
    ("CS(=O)(=O)N1CC2(CN(c3cc(Cl)cc4[nH]ncc34)C2)C1 [Compound 395]", "IC50", "< 3.16 µM"),
    ("CC1(C)CN(c2cc(C3CC3)cc3[nH]ncc23)CCN1S(C)(=O)=O [Compound 127]", "IC50", "3.24 to 31.6 µM"),
    ("O=C(C1CC1)N1CCC(c2cc(Cl)cc3[nH]ncc23)CC1 [Compound 165]", "IC50", "32.4 to 100 µM"),
    ("CC(=O)NCCN1C(=O)NC2(CCN(c3cc(Cl)cc4[nH]ncc34)CC2)C1=O [Compound 412]", "IC50", "> 100 µM"),
    ("CC(=O)N1CCC(c2cccc3[nH]ncc23)CC1 [Compound 14]", "IC50", "32.4 to 100 µM"),
]

-- ask # query: IC50 of entry O=C1CCCC2(CCN(c3cc(Cl)cc4[nH]ncc34)CC2)N1 [Compound 216]
-- reply 3.24 to 31.6 µM

-- ask Reported IC50, compound Clc1cc(C2CCCCC2)c2cn[nH]c2c1 [Compound 353] : ____
-- reply 32.4 to 100 µM

-- ask Which IC50 value belongs to CNC(=O)c1ccc(N2CCN(c3cc(Cl)cc4[nH]ncc34)CC2)cc1 [Compound 445] ?
-- reply < 3.16 µM

----------
- Target system: IDO (Homo sapiens, UniProt P14902)
- Sequence (P14902 whole entry): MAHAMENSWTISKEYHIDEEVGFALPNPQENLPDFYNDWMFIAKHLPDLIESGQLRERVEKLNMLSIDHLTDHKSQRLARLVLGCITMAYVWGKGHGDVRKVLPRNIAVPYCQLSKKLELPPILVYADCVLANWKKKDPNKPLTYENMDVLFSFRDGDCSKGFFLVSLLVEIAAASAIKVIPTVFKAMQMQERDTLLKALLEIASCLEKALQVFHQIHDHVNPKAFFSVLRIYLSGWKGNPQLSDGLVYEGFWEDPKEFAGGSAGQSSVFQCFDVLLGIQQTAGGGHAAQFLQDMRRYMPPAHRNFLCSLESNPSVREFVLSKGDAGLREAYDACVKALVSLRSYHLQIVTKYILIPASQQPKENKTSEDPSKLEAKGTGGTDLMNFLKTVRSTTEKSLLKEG
- Experimental details: SKOV3 kynurenine cell-based assay (IDO induced by IFN-γ)
- Parameters: IDO expression was induced in the SKOV3 cells by the addition of 500 ng/ml IFN-γ; endogenous in cells; host or cells: SKOV3 (human ovarian adenocarcinoma), induced with IFN-γ
- Condition info: SKOV3 human ovarian adenocarcinoma cells, 500 ng/ml IFN-γ, 48 hours, 500 μM L-tryptophan; read-out: SKOV3 Kynurenine cell based assay pIC50 (converted)
Value kind: IC50

# Structure as smiles, Target system, IC50
data = [
    ("Cc1nc2c([nH]1)CN(c1cc(C(F)(F)F)cc3[nH]ncc13)CC2", "IDO (Homo sapiens, UniProt P14902)", "32.4 to 100 µM"),
    ("COc1cc(S(C)(=O)=O)ccc1-c1cc(Cl)cc2[nH]ncc12", "IDO (Homo sapiens, UniProt P14902)", "3.24 to 31.6 µM"),
    ("CC(=O)Nc1cccc2[nH]ncc12", "IDO (Homo sapiens, UniProt P14902)", "> 100 µM"),
    ("NS(=O)(=O)N1CCC2(CCN(c3cc(Cl)cc4[nH]ncc34)CC2)CC1", "IDO (Homo sapiens, UniProt P14902)", "3.24 to 31.6 µM"),
]

Note: attention shifts to another entry.
-- ask Request body: readout IC50, system IDO (Homo sapiens, UniProt P14902), query CC(C)(O)C(=O)N1CCN(c2cc(Cl)cc3[nH]ncc23)CC1 . Return the value.
-- reply 3.24 to 31.6 µM

----------
A collection of compounds and their measured IC50
- Target system: IDO (Homo sapiens)
- Experimental details: hIDO biochemical coupled assay
- Condition info: 45 μM L-tryptophan, 17 minutes, room temperature; read-out: hIDO biochemical assay pIC50 (converted)

Solved cases below.
# Structure as smiles, IC50
measured = [
    ("Clc1cc(N2CCC(c3nccs3)CC2)c2cn[nH]c2c1", "3.24 to 31.6 µM"),
    ("O=C1NC2(CCN(c3cc(Cl)cc4[nH]ncc34)CC2)C(=O)N1Cc1ccccc1", "< 3.16 µM"),
    ("CS(=O)(=O)N1C2CCC1CN(c1cc(Cl)cc3[nH]ncc13)C2", "3.24 to 31.6 µM"),
]

-- ask Hi! What's the reported IC50 for Clc1cc(C2CCCCC2)c2cn[nH]c2c1 on IDO (Homo sapiens)?
-- reply > 100 µM

-- ask What measured IC50 is associated with O=C1NC(=O)C2(CCN(c3cc(Cl)cc4[nH]ncc34)CC2)N1 on IDO (Homo sapiens)?
-- reply < 3.16 µM

----------
Here, each record is paired with measured IC50 data.
- Target system: UniProt:P48775
- Sequence (P48775 whole entry): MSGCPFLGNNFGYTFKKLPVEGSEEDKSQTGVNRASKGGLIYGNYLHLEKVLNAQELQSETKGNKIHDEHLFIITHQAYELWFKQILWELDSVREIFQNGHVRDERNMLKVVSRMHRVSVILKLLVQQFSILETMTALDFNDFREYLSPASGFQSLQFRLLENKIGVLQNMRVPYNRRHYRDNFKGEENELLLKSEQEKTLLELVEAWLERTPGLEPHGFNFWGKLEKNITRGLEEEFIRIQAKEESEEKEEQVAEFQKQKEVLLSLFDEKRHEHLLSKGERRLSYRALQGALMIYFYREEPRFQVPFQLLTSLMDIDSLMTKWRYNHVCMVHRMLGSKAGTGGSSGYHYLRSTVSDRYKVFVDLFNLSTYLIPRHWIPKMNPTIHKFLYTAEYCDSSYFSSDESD
- Experimental details: A172 kynurenine cell-based assay
- Set-up: This assay utilised cancer cells which expressed either TDO or IDO; endogenous in cells; host or cells: A172 (human glioblastoma)
- Condition info: A172 human glioblastoma cells, 48 hours, 500 μM L-tryptophan; read-out: A172 Kynurenine cell based assay pIC50 (converted)

Completed entries (count: 2):
# Compound, IC50
data = [
    ("Clc1cc(N2CCc3cnccc3C2)c2cn[nH]c2c1", "< 3.16 µM"),
    ("Clc1cc(C2CCOCC2)c2cn[nH]c2c1", "< 3.16 µM"),
]

-- ask Request the reported IC50 associated with CC(C)c1cc(N2CCN(S(C)(=O)=O)CC2)c2cn[nH]c2c1
-- reply 3.24 to 31.6 µM

-- ask Quick one: IC50 for CN(C)C(=O)C1CCCN(c2cc(Cl)cc3[nH]ncc23)C1 (stereo not shown) ?
-- reply 32.4 to 100 µM

----------
- Target system: UniProtKB P14902
- Experimental details: SKOV3 kynurenine cell-based assay (IDO induced by IFN-γ)
- Set-up: IDO expression was induced in the SKOV3 cells by the addition of 500 ng/ml IFN-γ; endogenous in cells; host or cells: SKOV3 (human ovarian adenocarcinoma), induced with IFN-γ
- Condition info: SKOV3 human ovarian adenocarcinoma cells, 500 ng/ml IFN-γ, 48 hours, 500 μM L-tryptophan; read-out: SKOV3 Kynurenine cell based assay pIC50 (converted)
Listed below: IC50 values for each entry.

Study these solved cases before continuing.
# Compound, IC50
measured = [
    ("CNS(=O)(=O)N1CCN(c2cc(Cl)cc3[nH]ncc23)CC1 [Compound 114]", "3.24 to 31.6 µM"),
    ("NS(=O)(=O)N1CCC(c2cc(Cl)cc3[nH]ncc23)CC1 [Compound 174]", "3.24 to 31.6 µM"),
    ("Clc1cc(N2CCC(n3cccn3)CC2)c2cn[nH]c2c1 [Compound 339]", "3.24 to 31.6 µM"),
    ("CC(=O)N1CCN(c2cc(C3CC3)cc3[nH]ncc23)CC1 [Compound 121]", "> 100 µM"),
    ("CC1(C)CN(c2cc(Cl)cc3[nH]ncc23)CCN1S(C)(=O)=O [Compound 45]", "< 3.16 µM"),
    ("O=C(NCc1ccccc1)c1cc(Cl)cc2[nH]ncc12 [Compound 237]", "32.4 to 100 µM"),
    ("CC(=O)NCC1CCN(c2cc(Cl)cc3[nH]ncc23)CC1 [Compound 270]", "3.24 to 31.6 µM"),
    ("c1ccc(Nc2cccc3[nH]ncc23)cc1 [Compound 36]", "> 100 µM"),
]

Here's the next entry for you.
-- ask Could you tell me which IC50 is on file for COC(C)c1cc(Cl)cc2[nH]ncc12 (centres unmarked) [Compound 287] ?
-- reply > 100 µM
